Reference source: patent US12479834B2

- Experimental System: G12C K-Ras4B (1-169) (Homo sapiens, UniProt P01116, G12C)
- Construct: G12C K-Ras4B (1-169) protein, which was a KRAS G12C mutant; His tag (N, cleaved yes); made in house; host or cells: E. coli BL21 (DE3)
- Assay Details: Binding to KRAS G12C mutant, compound binding rate by LC-MS
- Measurement Setup: final compound concentration 2 μM, 1 μM protein, 2 hours at 25° C.
Parameter: binding rate for G12C K-Ras4B (1-169)

These solved cases illustrate the format of a correct answer.
# get_value(readout='binding rate for G12C K-Ras4B (1-169)', item= C=CC(=O)N1CC(NC(=O)c2c(C)nc(CNc3cc(C(C)(C)C)c(Cl)cc3O)n2CCC)C1 )
A (80% or more)

# get_value(readout='binding rate for G12C K-Ras4B (1-169)', item= C=CC(=O)N1CC(NC(=O)c2ccc(CNc3cc(C(C)(C)C)c(Cl)cc3OC)o2)C1 [Reference Example1, reference compound] )
E (less than 20%)

# get_value(readout='binding rate for G12C K-Ras4B (1-169)', item= C=CC(=O)N1CC(NC(=O)c2c(C)nc(CNc3cc(C(C)(C)C)c(Cl)cc3O)n2C)C1 )
A (80% or more)

# get_value(readout='binding rate for G12C K-Ras4B (1-169)', item= C=CC(=O)N1CC(NC(=O)c2c(C)nc(CNc3cc(C(C)(C)C)c(Cl)cc3O)n2CC)C1 )
A (80% or more)

# get_value(readout='binding rate for G12C K-Ras4B (1-169)', item= C=CC(=O)N1CC(NC(=O)c2cnc(CNc3cc(C(C)(C)C)c(Cl)cc3O)n2CC)C1 )
A (80% or more)

# get_value(readout='binding rate for G12C K-Ras4B (1-169)', item= C=CC(=O)N1CC(NC(=O)c2c(C)nc(C(O)c3cc(C(C)(C)C)c(F)cc3O)n2C)C1 (stereo not drawn) )
E (less than 20%)

Proceeding to the next compound to report its binding rate for G12C K-Ras4B (1-169).
# get_value(readout='binding rate for G12C K-Ras4B (1-169)', item= C=CC(=O)N1CC(NC(=O)c2cnc(CNc3cc(C(C)(C)C)c(Cl)cc3O)n2C)C1 )
A (80% or more)
